Test system: UACC-62 melanoma
Assay: NCI-60 one-dose screen, 48 h (100 = growth as untreated, 0 = no growth, -100 = all killed)
Conditions: 10 µM
Description: Growth inhibition of the UACC-62 human tumor cell line is measured as a screen for anti-cancer activity. Cells are grown in 96 well plates and exposed to the test compound for 48 hours. Compounds are tested at a single concentration, which is 10^-5 M for most compounds. The reported endpoint is percent growth (GI% or GIPRCNT), where numbers from 0 - 100% represent growth inhibition, and numbers from -100% - 0 represent cell death. For example, a value of 40 represents 60% growth inhibition. […]
The panel holds about 83,000 compounds, 20% with a hit somewhere; the sample as a whole holds those more often.
Lab note: anything with growth at or over 20% counts as Y; the rest go in N.

# bool: growth of C=C(C)[C@@H]1CC[C@]2(COP(=O)(OCC)OCC)CC[C@]3(C)[C@H](CC[C@@H]4[C@@](C)(CCCN)[C@H](C(=C)C)CC[C@]43C)[C@@H]12 >= 20%
Y

Quick check: does O=C1Nc2ccc(Cl)cc2/C1=C/c1cccc(OCc2ccccc2)c1 have growth greater than or equal to 20%?
Y

For this molecule, is measured growth 20% or higher? CCOC(=O)C1NN(c2ccc(S(N)(=O)=O)cc2)c2nc3nc(-c4cccs4)cc(-c4cccs4)c3c(=O)n21 (stereo unspecified)
Y

Exam item: decide whether the reported growth for COc1ccc(CN2[C@@H](C(=O)NCc3ccc(C(=O)NO)cc3)Cc3c([nH]c4ccccc34)[C@@H]2C)cc1 is at least 20%.
N

Is growth at least 20%? Consider CN1CCCN(Cc2ccc(C(=O)Nc3cccc(Nc4ccc5cc(O)ccc5n4)c3)cc2C(F)(F)F)CC1
Y

Confirm if growth reported for the molecule CC1(C)CC[C@]23CC[C@]4(C)[C@H](CC[C@@H]5[C@@]6(C)CC[C@H](N)C(C)(C)[C@@H]6CC[C@]54C)[C@H]2[C@H]1OC3=O is 20% or above.
N

Identify whether the reported growth of the following molecule is 20% or greater: COc1ccc2nc(Cl)c(-c3cc(-c4ccccc4)nc(N)n3)cc2c1
Y

Decide: is the reported value of growth for CN(C)c1nc(NCCNS(=O)(=O)c2ccc(C(=O)/C=C/c3ccccc3)cc2)nc(Nc2ccc(F)cc2)n1 equal to or greater than 20%?
Y

Determine whether measured growth meets or exceeds 20% for Cc1ccc(/C=C/C(=O)c2ccc(NC(=O)CSc3nnc(-c4c[nH]c5ccccc45)n3-c3ccccc3)cc2)c(C)c1
Y

Quick check, growth >= 20%? Cc1ccc(-c2nc(Nc3ccc(S(N)(=O)=O)cc3)c3ccccc3n2)cc1
Y

Threshold query (growth >= 20%) on COc1cc(Cn2c(C(F)(F)F)cc3c(Cl)ncnc32)ccn1
N

I'd appreciate it if you could say whether CCN(CC)CCOc1ccc(C(=C(C)c2ccccc2)c2ccc(OCCN(CC)CC)cc2)cc1 has growth at least equal to 20%.
N

Please tell me: is the molecule Cc1ccc2nc(COc3ccc(C(=O)NNC(=S)NCCc4ccccc4)cc3)[nH]c2c1 at or over 20% in terms of growth?
Y

Is reported growth greater than or equal to 20% here: COc1ccc(NC(=O)Nc2ccc(OCC(=O)N=Nc3c(O)[nH]c4ccc([N+](=O)[O-])cc34)cc2)cc1
Y

# bool: growth of COc1ccc(NC(=O)CSc2nnc(-c3ccc4nc(-c5ccc(Cl)cc5)[nH]c4c3)o2)cc1 >= 20%
N

Is the recorded value of growth equal to or greater than 20% for this molecule? O=C1Nc2ccc(Cl)cc2/C1=C/c1ccc(OCc2ccc(Br)cc2F)cc1
Y

Test whether the molecule CC(=O)NCC1=C(C)C=C2C(=O)[C@](C)(O)C3(CC3)C(C)=C21 records growth of 20% or higher.
N

Answer whether growth of CCOC(=O)c1c(CSc2ccccc2)n(C)c2cc(CN(C)C)c(O)c(CN(C)C)c12 is greater than or equal to 20%.
Y

Hello, I need to know if O=C(c1ccc(Cl)cc1)C1[C@H](c2ccc(Br)cc2)[C@@H](c2ccccc2)NC12C(=O)Nc1ccc(Br)cc12 (stereo partly specified) has measured growth not below 20%. Thanks!
N

Could you please find out whether O=C1Nc2ccc(Cl)cc2/C1=C/c1ccc(OCc2ccccn2)cc1 has growth that meets 20% or exceeds it?
Y

I'd appreciate it if you could say whether CN(CCO)c1oc(-c2ccccc2)nc1[P+](c1ccccc1)(c1ccccc1)c1ccccc1 has growth at least equal to 20%.
N

Check if growth >= 20% (inclusive). Item: Cc1ccc(-c2cc(C(=O)N=Nc3c(O)[nH]c4ccc(Br)cc34)c3ccccc3n2)cc1
Y

Does CSc1nc(-c2cccc(C)c2)c2cc(-c3ccccc3)n(C)c2n1 have a reported growth of at least 20%?
N

Check if growth >= 20% (inclusive). Item: CN1CCN(c2ccc(Nc3nc(NCCCNC(=O)c4ccccc4)c4sccc4n3)cc2)CC1
Y

Is reported growth greater than or equal to 20% here: O=C(Nc1ccc(F)c(Cl)c1)c1cc(-c2ccc(F)cc2F)ccc1O
N

Evaluate O=C(CSc1nnc(-c2ccc3nc(-c4ccc(Cl)cc4)[nH]c3c2)o1)Nc1ccc(Br)cc1 : growth at minimum 20%?
N

Item CC(=O)Oc1ccccc1C(=O)Oc1ccc(C(=O)/C=C/c2ccncc2)cc1 with growth of 20% or above?
Y

hey, is growth for this one >= 20%? Cc1ccc(-c2nc3ccc(C(=O)N=Nc4c(O)[nH]c5ccc(Cl)cc45)cc3[nH]2)cc1
Y

Check this molecule for growth at or above 20%: C/C(=C\CC/C=C(\C)CC/C=C(\C)CC[C@@H](O)C(C)(C)O)CC/C=C(\C)CC[C@@H](O)C(C)(C)O
Y

Check if growth >= 20% (inclusive). Item: CN1CCN(c2ccc(C(=O)/C=C/c3cc(C(F)(F)F)ccc3Cl)cc2)CC1
N

API: above_or_equal(metric=growth, cutoff=20%) for item Cc1ccc2nc3c(nc2c1)c1cc(I)ccc1n3CCN(C)C
Y

Confirm if growth reported for the molecule CC(C)Sc1nc(NC2CC2)c(C#N)c(-c2ccccc2)n1 is 20% or above.
Y

Reported growth at or above 20%? Cc1ccc(C(=O)CSc2nnc(-c3c[nH]c4ccccc34)n2-c2ccccc2)cc1
Y

Decide: is the reported value of growth for O=C(c1ccc(-n2c(=O)[nH]c3ccccc3c2=O)cc1)N1CCOCC1 equal to or greater than 20%?
Y

Item COc1cc(OC(F)(F)F)ccc1C(=O)Nc1sc2c(c1C#N)CCC(=O)C2 with growth of 20% or above?
Y

Evaluate O=C(NO)c1ccc(CNC(=O)[C@H]2Cc3c([nH]c4ccccc34)[C@H](c3ccccc3)N2)cc1 : growth at minimum 20%?
N

====

system: RPMI-8226 leukemia; test: NCI-60 one-dose screen, 48 h; conditions: 10 µM
The panel holds about 83,000 compounds, 20% with a hit somewhere; the sample as a whole holds those more often. The source made the active and inactive calls. The calls were made as follows: active = growth percent below 10; inactive = the rest.
Pick from active, inactive when you respond.

Given C[C@H]1[C@H](C)CC[C@]2(COC(=O)CCC(=O)NCC#CCN3CCNCC3)CC[C@]3(C)C(=CC[C@@H]4[C@@]5(C)CCCNC(C)(C)[C@@H]5CC[C@]43C)[C@H]12 , state the outcome it received in this test.
active

Recorded test outcome, item CC(=O)Nc1ccc(-n2cnc3cc(-c4ccc(O)cc4)ccc32)cc1F
inactive

Which outcome was entered for the molecule OCCCNc1oc(-c2ccccc2)nc1[P+](c1ccccc1)(c1ccccc1)c1ccccc1 in this test?
active

Hi team, can someone confirm the assay call for O=C(/C=C/Nc1ccc(F)cc1F)c1ccc2c(c1)Nc1ccccc1S2 ?
inactive

Tell me the recorded outcome of this test for Clc1ccc2c(N/N=C/c3c[nH]c4ccc(Br)cc34)ccnc2c1 .
active

# fetch the recorded call for O=C(CNc1nc(-c2ccccc2)cs1)Nc1ccc(Br)cc1 here
active

Outcome? NS(=O)(=O)c1ccc(NC(=O)CSc2ccc(-c3ccccc3)nn2)c(Br)c1
inactive

Field: outcome | Entry: O=C(Nc1ccc(OCC(=O)c2ccccc2)cc1)Nc1ccc(Cl)c(C(F)(F)F)c1
active

# fetch the recorded call for Brc1ccc(/C=C/c2n(Cc3ccc4ccccc4c3)c3ccccc3[n+]2Cc2ccc3ccccc3c2)cc1 here
active

====

system: SNB-19 CNS; experiment: NCI-60 one-dose screen, 48 h (100 = growth as untreated, 0 = no growth, -100 = all killed); details: 10 µM
The panel holds about 83,000 compounds, 20% with a hit somewhere; the sample as a whole holds those more often.
recorded.endpoint: growth (%)
Respond with the bare value in %.

Which growth is reported for this compound? COc1ccc2c3nc4cc(C)c(C)cc4nc3n(CCN(C)C)c2c1
9.9

Sample Cc1ccc(/C=C/C(=O)c2ccc(S(=O)(=O)NCCNc3nc(Nc4ccc(F)cc4)nc(N(C)C)n3)cc2)cc1 — what was its growth?
44.7

# query: growth of entry O=C(c1ccc(Cl)cc1)C1[C@H](c2ccccc2Br)[C@@H](c2ccccc2)NC12C(=O)Nc1ccccc12 (stereo partly drawn)
31.6

Which growth value belongs to Cc1ccc(-c2nc3ccc(C(=O)N=Nc4c(O)[nH]c5ccc([N+](=O)[O-])cc45)cc3[nH]2)cc1 ?
55.4

Entry CC[C@]12C=CCN3CC[C@@]4(c5cc(C#CCNc6ccc(C)c(Nc7nccc(-c8cccnc8)n7)c6)c(OC)cc5N(C)[C@H]4[C@@](O)(C(=O)OC)[C@@H]1OC(C)=O)C32 (stereo partly drawn) : reported growth = ?
48.1

Look at this compound and give its reported growth. COc1ccc2nc(Cl)c(-c3cc(-c4ccccc4)nc(=O)[nH]3)cc2c1
31.5

Entry COc1ccc(CN2[C@@H](C(=O)NCc3ccc(C(=O)NO)cc3)Cc3c([nH]c4ccccc34)[C@@H]2C)cc1 : reported growth = ?
40.3

I would be grateful if you could share the reported growth for CCN1CCN(c2ccc(NC(=O)Nc3ccc(-c4cc(C(=O)NC)c5ncccc5n4)cc3)cc2C(F)(F)F)CC1 .
-100
